# TARGET_OR_TEST_SYSTEM: T1, SARS-CoV-2 RBD (amino acids 340-538) on MDCK-SIAT1 cells (SARS-CoV-2 (so in the source))
# T1 construct: also called MDCK-RBD; source: MDCK-SIAT1, stably transduced (lentiviral vector), on the cell surface
# EXPERIMENTAL_DETAILS: flow cytometry on cells
# ASSAY_SETUP: one partner purified
MEASUREMENT_LABEL: binding result

binder="FD 11A (antibody, V domains shown, source: HEK293T, transfected; culture supernatant or purified) VH: EVQLVESGGGVVQPGRSLRLSCAASGFTFSSYGMHWVRQAPGKGLEWVAVIWYDGSNKYYADSVKGRFTISRDNSKNTLYLQMNSLRAEDTAVYYCAKGPDILTGYYNYYYYGMDVWGQGTMVTVSS VL: QSVLTQPPSVSGAPGQRVTISCTGSSSNIGAGYDVHWYQQLPGTAPKLLIYGNSNRPSGVPDRFSGSKSGTSASLAITGLQAEDEADYYCQSYDSSLSGFYVVFGGGTKLTVL" reported_result=binds
binder="FM 7B (antibody, V domains shown, source: HEK293T, transfected; culture supernatant or purified) VH: EVQLVQSGAEVKKPGASVKVSCKASGYTFTSYAMHWVRQAPGQRLEWMGWINTGNGNTKYSQKFQGRVTITRDTSASTAYMELSSLRSEDTAVYYCARDPTYCSSTSCYPFSWFDPWGQGTLVTVSS VL: NFMLTQPPSVSVAPGQTARITCGGNNIGSKSVHWYQQKPGQAPVLVVYDDSDRPSGIPERFSGSNSGNTATLTISRVEAGDEADYYCQVWDSTGDHSWVFGGGTKLTVL" reported_result=binds

FYI, the data here is from paper PMC8130932.
